- Tested on: Plasmodium berghei
- Run description: Luciferase/luciferin-expressing antifolate-resistant parasites were used to infect a culture of HepG2 cells that were pre-incubated with compounds. Infected hepatocytes emit light due to the luciferase reaction. Assay results are presented as the percent inhibition of light emission compared to control. […]
- Format: functional
- Test settings: sporozoite, PBLUC_HILL_SLOPE 13.3, PBLUC_R_SQUARED 0.408, read-out: LUCIFERASE INFECTION ASSAY - IC50
Test readout: pIC50
# pIC50 = -log10(concentration in molar units)

Could you tell me which pIC50 is on file for `O=C(Nc1ccccc1)Nc1cccc(C(F)(F)F)c1` ? 5.43

These data points were gathered from ChEMBL document CHEMBL4483862.
